# System Name: T1, human MSLN-FL-his protein (human, UniProt Q13421 296-580)
# T1 construct: also called human MSLN full-length protein; hMSLN-FL-his; not shown: His tag
# T1 sequence (Q13421 other isoform, or with tags, fused parts or gaps): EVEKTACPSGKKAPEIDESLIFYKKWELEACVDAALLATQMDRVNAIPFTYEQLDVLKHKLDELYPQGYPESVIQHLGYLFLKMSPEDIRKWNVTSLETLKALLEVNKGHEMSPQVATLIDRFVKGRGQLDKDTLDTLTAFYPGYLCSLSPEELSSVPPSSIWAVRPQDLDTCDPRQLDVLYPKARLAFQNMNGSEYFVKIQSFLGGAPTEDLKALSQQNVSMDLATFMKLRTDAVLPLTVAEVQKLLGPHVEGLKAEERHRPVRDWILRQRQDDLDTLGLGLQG
# Test Name: ELISA, coated MSLN full-length;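 also: binding of chimeric antibodies to plate-bound antigen, read by TMB colour after acid stop, antibody incubated 2 h at 37 °C, negative control antibody run alongside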
Kindly supply the reported OD450 at none (no antibody) values for the records listed here.
All answers are understood in OD450, so give the number only.

GET /value?item= S009-F2.38.12 (antibody, human IgG1, kappa, V domains shown, Human-murine chimeric antibody, human IgG1/kappa constant regions) VH: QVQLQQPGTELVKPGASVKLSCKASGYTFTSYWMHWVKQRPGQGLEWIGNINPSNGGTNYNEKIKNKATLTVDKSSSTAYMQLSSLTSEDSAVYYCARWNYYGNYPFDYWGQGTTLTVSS VL: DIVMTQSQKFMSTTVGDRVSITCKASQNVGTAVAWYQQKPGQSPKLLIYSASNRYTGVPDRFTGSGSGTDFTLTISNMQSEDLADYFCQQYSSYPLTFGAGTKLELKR &field=OD450 at none (no antibody) returns 0.06

// OD450 at none (no antibody) value for S009-F2.13.3 (antibody, human IgG1, kappa, V domains shown, Human-murine chimeric antibody, human IgG1/kappa constant regions) VH: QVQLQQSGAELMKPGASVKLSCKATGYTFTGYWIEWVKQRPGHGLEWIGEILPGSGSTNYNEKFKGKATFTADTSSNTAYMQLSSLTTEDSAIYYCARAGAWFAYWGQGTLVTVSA VL: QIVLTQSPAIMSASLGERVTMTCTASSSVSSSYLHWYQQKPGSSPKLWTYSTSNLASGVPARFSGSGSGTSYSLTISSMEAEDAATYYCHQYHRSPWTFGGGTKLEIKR : 0.06

Measured OD450 at none (no antibody), S009-F2.47.1 (antibody, human IgG1, kappa, V domains shown, Human-murine chimeric antibody, human IgG1/kappa constant regions) VH: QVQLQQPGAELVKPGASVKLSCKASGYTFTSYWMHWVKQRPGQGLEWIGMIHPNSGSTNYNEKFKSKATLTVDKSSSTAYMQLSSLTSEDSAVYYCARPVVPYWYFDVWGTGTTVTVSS VL: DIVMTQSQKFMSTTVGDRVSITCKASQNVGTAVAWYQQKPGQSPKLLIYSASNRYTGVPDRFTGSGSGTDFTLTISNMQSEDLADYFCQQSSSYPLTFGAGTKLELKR : 0.06

Notebook: S009-F2.21.4 (antibody, human IgG1, kappa, V domains shown, Human-murine chimeric antibody, human IgG1/kappa constant regions) VH: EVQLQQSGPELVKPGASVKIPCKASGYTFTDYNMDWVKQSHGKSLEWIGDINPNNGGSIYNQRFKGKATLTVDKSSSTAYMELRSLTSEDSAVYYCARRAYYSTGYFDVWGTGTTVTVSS VL: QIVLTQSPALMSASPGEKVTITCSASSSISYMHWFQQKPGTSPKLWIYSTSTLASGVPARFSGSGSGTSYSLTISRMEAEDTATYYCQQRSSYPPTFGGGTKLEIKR , OD450 at none (no antibody) read as 0.06

Query S009-F2-56.12 (antibody, human IgG1, kappa, V domains shown, Human-murine chimeric antibody, human IgG1/kappa constant regions) VH: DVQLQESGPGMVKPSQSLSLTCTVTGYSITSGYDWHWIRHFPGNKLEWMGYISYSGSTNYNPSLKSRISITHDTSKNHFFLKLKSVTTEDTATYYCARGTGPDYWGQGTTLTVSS VL: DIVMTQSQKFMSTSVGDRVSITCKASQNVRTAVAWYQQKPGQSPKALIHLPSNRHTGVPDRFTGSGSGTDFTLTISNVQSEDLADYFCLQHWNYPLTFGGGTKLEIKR yields OD450 at none (no antibody) of 0.07
